src = patent US7732475B2

Assignment: determine reported pIC50 for the given molecules.
- Subject of test: HDAC2 (Homo sapiens, UniProt Q92769)
- Sequence (Q92769 with tags, fused parts or gaps): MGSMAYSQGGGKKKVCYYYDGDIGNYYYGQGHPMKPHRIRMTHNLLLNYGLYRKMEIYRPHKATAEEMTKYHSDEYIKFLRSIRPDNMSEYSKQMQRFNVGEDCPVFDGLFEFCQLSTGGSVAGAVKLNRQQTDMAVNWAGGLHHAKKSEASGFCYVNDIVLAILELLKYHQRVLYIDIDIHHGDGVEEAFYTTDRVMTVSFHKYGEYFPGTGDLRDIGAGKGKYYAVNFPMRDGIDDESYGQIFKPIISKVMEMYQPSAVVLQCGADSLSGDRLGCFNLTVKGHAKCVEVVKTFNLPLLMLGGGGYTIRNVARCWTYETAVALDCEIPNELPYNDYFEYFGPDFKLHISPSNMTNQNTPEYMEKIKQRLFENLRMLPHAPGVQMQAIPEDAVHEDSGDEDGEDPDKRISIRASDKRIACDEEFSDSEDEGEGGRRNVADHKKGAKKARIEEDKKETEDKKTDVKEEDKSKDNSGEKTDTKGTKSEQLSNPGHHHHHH
- Method notes: HDAC2 fluorescence inhibition assay (tBoc-Lys(Ac)-AMC)
pIC50: −log10 of the molar value.

Below, 10 molecules whose answers are already recorded.
Cc1ccn(Cc2ccc(C(=O)Nc3ccccc3N)cc2)n1 ... 6.30 to 7.00
CN(C)CCNC(=O)c1cnn(Cc2ccc(C(=O)Nc3ccccc3N)cc2)c1 ... 7.00 to 7.30
Nc1ccccc1NC(=O)c1ccc(Cn2cc(C(=O)NCc3ccccn3)cn2)cc1 ... ≥ 7.30
Cc1cnn(Cc2ccc(C(=O)Nc3ccccc3N)cc2)c1 ... 6.30 to 7.00
COc1cc2nn(Cc3ccc(C(=O)Nc4ccccc4N)cc3)cc2cc1O ... 7.00 to 7.30
Cc1c2cc(C(F)(F)F)ccc2nn1Cc1ccc(C(=O)Nc2ccccc2N)cc1 ... ≥ 7.30
Nc1ccccc1NC(=O)c1ccc(Cn2nc3ccccc3c2Cl)cc1 ... ≥ 7.30
Cc1nn(Cc2ccc(C(=O)Nc3ccccc3N)cc2)c2cc(F)c(F)cc12 ... 7.00 to 7.30
Nc1ccccc1NC(=O)c1ccc(Cn2ncc3c(F)cc(F)cc32)cc1 ... 7.00 to 7.30
COc1ccc2cnn(Cc3ccc(C(=O)Nc4ccccc4N)cc3)c2c1 ... 7.00 to 7.30

Provide pIC50 values for the following items, in order.
1. Nc1ccccc1NC(=O)c1ccc(Cn2cc3cc(NC(=O)c4ccccc4)ccc3n2)cc1
2. Cc1nn(Cc2ccc(C(=O)Nc3ccccc3N)cc2)c2c(F)cccc12
3. CC(C)NC(=O)c1cnn(Cc2ccc(C(=O)Nc3ccccc3N)cc2)c1
4. Nc1ccccc1NC(=O)c1ccc(Cn2ncc3cccc(F)c32)cc1

Response:
["≥ 7.30", "7.00 to 7.30", "≥ 7.30", "7.00 to 7.30"]
